Catalogue of IC50 (Hum-ZAP secondary immunotoxin killing of IGROV-1 cells) readings, one per entry.
assayed_target: Human FRA on IGROV-1 human ovarian adenocarcinoma cells (human, UniProt P15328 25-234)
Sequence (P15328 25-234 limits assumed): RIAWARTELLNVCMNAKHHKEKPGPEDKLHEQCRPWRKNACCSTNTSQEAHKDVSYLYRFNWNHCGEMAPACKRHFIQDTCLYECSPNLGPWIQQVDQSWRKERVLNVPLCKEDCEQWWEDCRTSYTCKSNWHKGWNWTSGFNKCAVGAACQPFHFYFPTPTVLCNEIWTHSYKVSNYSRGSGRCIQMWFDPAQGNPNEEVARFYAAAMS
assay_text: cell-based or functional assay
The figure you give is taken to be in ng·mL; do not add the unit.

>>> readout_number("MORAb-003 anti-FRA antibody reference standard (antibody, human IgG1, kappa, V domains shown, N-linked neutral glycans at Asn299 in SEQ ID NO: 5) VH: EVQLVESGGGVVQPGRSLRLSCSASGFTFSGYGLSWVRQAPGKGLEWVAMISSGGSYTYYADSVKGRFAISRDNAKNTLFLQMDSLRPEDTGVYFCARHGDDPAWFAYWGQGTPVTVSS VL: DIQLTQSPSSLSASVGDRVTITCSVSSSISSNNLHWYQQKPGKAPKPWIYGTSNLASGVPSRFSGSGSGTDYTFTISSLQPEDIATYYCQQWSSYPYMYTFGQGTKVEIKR")
14
>>> readout_number("MORAb-003 anti-FRA antibody, lot NB859-26 (harvested 17 days after initiation of culture) (antibody, human IgG1, kappa, V domains shown, N-linked neutral glycans at Asn299 in SEQ ID NO: 5, also called Day 17 harvest) VH: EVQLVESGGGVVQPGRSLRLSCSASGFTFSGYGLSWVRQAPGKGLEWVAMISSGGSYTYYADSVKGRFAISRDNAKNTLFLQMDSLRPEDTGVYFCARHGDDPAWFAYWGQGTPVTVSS VL: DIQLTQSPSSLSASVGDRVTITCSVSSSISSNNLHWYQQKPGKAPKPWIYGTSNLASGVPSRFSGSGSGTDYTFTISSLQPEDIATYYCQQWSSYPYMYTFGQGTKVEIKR")
36
>>> readout_number("MORAb-003 anti-FRA antibody, lot NB859-24 (harvested 10 days after initiation of culture) (antibody, human IgG1, kappa, V domains shown, N-linked neutral glycans at Asn299 in SEQ ID NO: 5, also called Day 10 harvest) VH: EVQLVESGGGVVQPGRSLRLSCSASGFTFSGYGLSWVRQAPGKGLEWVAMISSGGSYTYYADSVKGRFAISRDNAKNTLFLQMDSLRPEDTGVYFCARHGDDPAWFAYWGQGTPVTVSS VL: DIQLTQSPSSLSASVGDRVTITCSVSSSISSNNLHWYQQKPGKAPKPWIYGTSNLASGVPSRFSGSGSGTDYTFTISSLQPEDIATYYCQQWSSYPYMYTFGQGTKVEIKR")
15
>>> readout_number("MORAb-003 anti-FRA antibody, lot NB809-68 (high CO2; harvested 13 days after initiation of culture) (antibody, human IgG1, kappa, V domains shown, N-linked neutral glycans at Asn299 in SEQ ID NO: 5) VH: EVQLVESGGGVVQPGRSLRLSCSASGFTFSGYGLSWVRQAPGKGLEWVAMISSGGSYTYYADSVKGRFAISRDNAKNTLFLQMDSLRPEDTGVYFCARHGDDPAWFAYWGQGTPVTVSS VL: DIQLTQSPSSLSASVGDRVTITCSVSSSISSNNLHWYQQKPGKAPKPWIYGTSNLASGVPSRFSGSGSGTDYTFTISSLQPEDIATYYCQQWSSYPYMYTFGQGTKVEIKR")
28

Okay, next one:
-- ask Look up IC50 (Hum-ZAP secondary immunotoxin killing of IGROV-1 cells): MORAb-003 anti-FRA antibody, lot NB809-66 (0.5 mM Na butyrate; harvested 13 days after initiation of culture) (antibody, human IgG1, kappa, V domains shown, N-linked neutral glycans at Asn299 in SEQ ID NO: 5) VH: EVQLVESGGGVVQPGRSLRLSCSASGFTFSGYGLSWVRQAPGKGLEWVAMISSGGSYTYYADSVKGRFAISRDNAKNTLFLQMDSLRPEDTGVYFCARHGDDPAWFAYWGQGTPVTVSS VL: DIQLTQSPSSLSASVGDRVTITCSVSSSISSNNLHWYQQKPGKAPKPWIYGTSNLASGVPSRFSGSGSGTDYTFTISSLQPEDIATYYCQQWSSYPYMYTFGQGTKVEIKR
-- reply 15
